# assay.procedure: AUC (0 to t) in Sprague-Dawley rat at 10 mg/kg, po by LC-MS/MS analysis
# Type: ADME, organism-based
# particulars: in vivo
parameter.measured: AUC(0-t) (ng·h/mL)

>>> print(df.to_string())
                                smiles_repr  experimental_value
0  Cc1c2ccc(N(C)c3ccnc(Nc4ccc(C(=O)Nc5ccccc5N)cc4)n3)cc2nn1C                8570

---

# tested.system: Mast/stem cell growth factor receptor Kit (Homo sapiens, UniProt P10721)
# Sequence (P10721 whole entry): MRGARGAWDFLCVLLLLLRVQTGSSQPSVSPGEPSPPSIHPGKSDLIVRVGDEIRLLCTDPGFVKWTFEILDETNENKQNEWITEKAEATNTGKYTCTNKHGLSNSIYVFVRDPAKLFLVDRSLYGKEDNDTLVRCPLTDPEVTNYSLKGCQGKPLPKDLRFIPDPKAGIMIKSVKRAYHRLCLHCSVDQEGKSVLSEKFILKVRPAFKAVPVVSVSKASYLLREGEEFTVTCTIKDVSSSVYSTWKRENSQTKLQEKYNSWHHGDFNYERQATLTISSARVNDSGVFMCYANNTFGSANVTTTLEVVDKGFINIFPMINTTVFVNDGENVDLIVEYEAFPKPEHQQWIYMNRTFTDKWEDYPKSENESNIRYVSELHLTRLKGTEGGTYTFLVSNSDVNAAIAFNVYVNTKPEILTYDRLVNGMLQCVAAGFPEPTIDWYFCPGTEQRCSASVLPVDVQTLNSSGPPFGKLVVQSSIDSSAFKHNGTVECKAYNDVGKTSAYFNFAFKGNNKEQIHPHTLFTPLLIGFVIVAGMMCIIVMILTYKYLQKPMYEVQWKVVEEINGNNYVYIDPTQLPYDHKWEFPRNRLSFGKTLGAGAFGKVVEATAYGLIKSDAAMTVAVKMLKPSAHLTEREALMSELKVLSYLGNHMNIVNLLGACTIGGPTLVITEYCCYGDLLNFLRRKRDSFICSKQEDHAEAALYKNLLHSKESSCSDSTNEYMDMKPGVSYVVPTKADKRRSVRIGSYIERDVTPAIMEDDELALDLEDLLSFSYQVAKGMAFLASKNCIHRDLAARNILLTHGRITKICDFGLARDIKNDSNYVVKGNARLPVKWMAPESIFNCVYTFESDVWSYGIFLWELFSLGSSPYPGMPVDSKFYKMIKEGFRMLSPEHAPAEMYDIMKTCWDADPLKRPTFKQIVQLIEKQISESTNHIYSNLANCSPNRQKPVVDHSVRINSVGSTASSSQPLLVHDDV
parameter.measured: IC50 (nM)

In [3]: df
Out[3]:
                                smiles_repr  unit_string  experimental_value
0  Cc1c2ccc(N(C)c3ccnc(Nc4ccc(C(=O)NCCCCCCC(=O)NO)cc4)n3)cc2nn1C           nM                 163

From: ChEMBL document CHEMBL4190394
